Target: T1, GFP-9S library array, motif 4 ND N98C;D124K (synthetic construct, N98C;D124K)
T1 chain: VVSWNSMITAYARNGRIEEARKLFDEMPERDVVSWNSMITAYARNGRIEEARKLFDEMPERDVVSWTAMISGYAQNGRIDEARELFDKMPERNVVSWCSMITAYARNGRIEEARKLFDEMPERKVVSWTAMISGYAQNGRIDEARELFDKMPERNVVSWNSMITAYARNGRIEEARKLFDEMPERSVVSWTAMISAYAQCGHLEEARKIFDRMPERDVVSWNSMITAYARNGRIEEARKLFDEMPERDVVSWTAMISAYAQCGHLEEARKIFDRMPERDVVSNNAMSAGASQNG
Experiment: high-throughput RNA pulldown from lysate on Ni-NTA beads; HRP: 50 mM Tris pH 8, 150 mM NaCl, 1 mM beta-mercaptoethanol, 50 ug/ml BSA, 3 ug/ml yeast RNA, 0.5% heparin; ITC and FP: Tris pH 8, 200 mM KCl, 5% glycerol; MST: 50 mM Tris pH 8, 200 mM NaCl, 1 mM DTT, BSA, heparin, 0.05% Tween 20
Conditions: tags: N-terminal His-eGFP; label: 5' IRDye 800CW
pKd: −log10 of the molar value.
measured attribute: pKd

| binder | quantitative readout |
| --- | --- |
| AUUAUACGUGA (ssRNA) [IR-rpoA-U] | 6.86 |
| AUUAAACGUGA (ssRNA) [IR-rpoA-A] | 7.18 |
